// reported folding stability dG unfold per item
assay overview: folding stability dG unfold from trypsin proteolysis; higher = more stable
Unit kcal/mol implied. Number only.

Here are 3 sequences together with their reported answers.
{"sequence data": "SAGGSAGGSAGMKTLKIASISTSTSPTNTTLTTVTITSEGVTTTVTFPPGTTLEEVLEQLSAGGSAGGSAGG [r11_1056_JUSTAS]", "units": "kcal/mol", "value": 0.53}
{"sequence data": "SAGGSAGGSAGITIWFPYDNIPEILEEAQKNGMEIKSVERVPDGWYLIKMPGKPIEIHIWSAGGSAGGSAGG [r17_379_TrROS]", "units": "kcal/mol", "value": 0.94}
{"sequence data": "SAGGSANPNGKPWVEVEVSFMIPIDDEDIADALGGPPKPGDWLMITVKIRVYPDGNVEIDINLHPMSAGGSA [r15_91_TrROS]", "units": "kcal/mol", "value": 3.96}

We now examine a further sequence.
Exam item: Param item = SAGGSAGGSAGASPTAPAVTVEVKTEEVPNNDLLKTTTTTYFPGTGTTVTTETILPPGLGSAGGSAGGSAGG [r11_746_JUSTAS] ; retrieve measured folding stability dG unfold.
Marked response: 0.187
